Recorded polymerase ribozyme fitness (log ratio) for the following variants
B1: TPR t1 (parent)
chain: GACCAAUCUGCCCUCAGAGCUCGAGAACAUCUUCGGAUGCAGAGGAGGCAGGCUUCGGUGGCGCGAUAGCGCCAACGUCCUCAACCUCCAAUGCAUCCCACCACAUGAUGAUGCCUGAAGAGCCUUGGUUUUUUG

Variants of: B1
METHOD NOTES: polymerase ribozyme fitness, log enrichment relative to wild type (log ratio); higher = more active; in vitro selection for triplet polymerase activity
The answer should be a number; do not append a unit.

The examples below pair each entry with its known result.
1. GACCAAUCUGCCCUCAGAGCUCGAGAACAUCUUCGGAUGCAGAGGAGGCAGGCUUUGGUGGCGCGAUAGCGCCAACGUCCUCAACCUCCAAUGCAUCCCACCACUUGAUGAUGCCUGAAGAACCUUGGUUUUUUG [C56U A105U G122A] :: -2.96
2. GACCAAUCUGCCCUCAGAGCUCGAGAACAUCUUCGCAUGCAGAGGAGGCAGGCUUCCGUGACGCGAUAGCGCCAACGUCCUCAACCUCCAAUGCAUCCCACCACACGAUGAUUCCUGAAGAGCCUUGGUUUUUUG [G36C G57C G61A U106C G113U] :: -3.7
3. GACCAAUCUGCCCUCAGAGCUCGAGAACAUCUUCGGAUGCAGAGGAGGCAGGCUUCGGUGGCACGAUAGCGCCAACGUCCUCAACCUCCAAUGCAUCCCACCACAUGAUGAUGCCUGAAGAGCCUUGGUUGUUUG [G63A U131G] :: -1.53
4. GACCAAUCUGCCCUCAGAUCUCGAGAACAUCUUCGGAUGCCGAGGAGUCAGGCUUCGGUGGCGCGAUAGCGCCAACGUCCUCAACCUCCAAUGCAUCCCACCACAUGAUGAUGCCUGAAUAGCCUUGGUUUUUUG [G19U A41C G48U G120U] :: -4.33
5. GACCAAUCUGUCCUCAGAGCUCGAGAACAUCUUCGGAUGCAGAGGAGGCAGGCUUGGGUGGCGCGAUAGCGCCAACGUCCUCAACCUUCAAUGCAUCCCACCACAUGAUGAUGCCUGAACAUCCUUAGUUUUUUG [C11U C56G C88U G120C G122U G127A] :: -0.748
6. GACCAAUCUGCCCUCAGAGCUCGAGAACAUCUUCGGAUGCAGAGGAGGCAGGCUUCGGUGGCGCGAUAGCUCCAACGUCCUCAACCUCCAUUGCACCCCACCACAUGAUGAUGCCUGAAGAGCCUUGGUUUUUUG [G71U A91U U96C] :: -3.7

Value of polymerase ribozyme fitness (log ratio) reported for the variant GGCCAAUCUGCCCUCAGAGCUCGAGAAUAUCUUCGGAUGCAGAGGAGGCAGGCUUCGGUGGCGCGAUAGCGCCAACGUCCUCAACCUCCAAUGCAUCCCACCACAUGAUUAUGCCUGAAGAGCCUUGGUUUUUUG [A2G C28U G110U] is -2.63

Value of polymerase ribozyme fitness (log ratio) reported for the variant GACCCAUCUGCCCUCAGAGCUCGAGAACAUCUUCGGAUGCAGAGAAGGCAGGCUUCGGUGGCGCGAUAGCGCCAACGUCCUCCACCGCCAAUGCAUCCCACCACAUGAUGAUGCCUGAAAAGCCUUGGUUAUUUG [A5C G45A A83C U87G G120A U131A] is -0.712

Value of polymerase ribozyme fitness (log ratio) reported for the variant GACCAAUCUGCACUCAGAGAUCGAGAACAUCUUCGGAUGCAGAGGAGGCAGGCUUCGGUGUCGCGAUAGCGCCAACGUCCUCAACCUCCAAUGCAUCCCACCACAUGAUGAUGCCUGAAAAGCCUUGGUUUUUUG [C12A C20A G61U G120A] is -1.21

Value of polymerase ribozyme fitness (log ratio) reported for the variant GACCAAUCUGCCCUCAGAGCUCGAGAACAUCUUCGGAUGCAGAUGAGGCAGGCUUCGGUGGCGCGAUAGCGCCAACGUCCUCACCCUCCACUGCAUCCCACCACAUGAUGAUGCCUGAAGAGCCUUGGUUUUUUG [G44U A84C A91C] is -1.65

Value of polymerase ribozyme fitness (log ratio) reported for the variant GACCAAUCUCCCCUCAGAGCUCGAGAACAUCUUCGGAUACAGAGGAGGCAGGCUUGGGUGGCGCGAUAGCGCCAACGUCCUCAACCUCCAAUGCAUCCCACCACAUGAUGAUUCCUGUAGAGCCUUGGUUUUUUG [G10C G39A C56G G113U A118U] is -4.76

Data origin: the RNAGym collection of RNA variant scans (doi:10.1073/pnas.2313332121)
